Assay: Displacement of radioligand from phencyclidine binding site of NMDA receptor
readoutKind: IC50

{"testSmiles": "COC(CN1CCCN(Cc2ccccc2)[C@@H](CO)C1)OC", "IC50": "> 10 µM"}

Let us move to another entry and its IC50.
// field: IC50; key: OC[C@H]1CN(Cc2ccccc2)CCCN1Cc1ccccc1 ; value = > 10 µM

---

Biological target: Sigma non-opioid intracellular receptor 1 (Cavia porcellus)
Sequence (Q60492 whole entry): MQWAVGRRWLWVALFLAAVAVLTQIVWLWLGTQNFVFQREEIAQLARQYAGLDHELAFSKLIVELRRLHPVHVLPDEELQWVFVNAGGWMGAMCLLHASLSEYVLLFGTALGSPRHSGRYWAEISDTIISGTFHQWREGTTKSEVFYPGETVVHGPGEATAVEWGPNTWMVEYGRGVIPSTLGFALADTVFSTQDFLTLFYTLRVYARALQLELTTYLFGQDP
Test: Displacement of [3H](+)-pentazocine from sigma 1 receptor in guinea pig brain membrane by liquid scintillation analyzer
pKi: −log10 of the molar value.
readoutKind: pKi

{"testSmiles": "OC[C@H]1CN(Cc2ccccc2)CCN1Cc1ccccc1", "testedSystem": "Sigma non-opioid intracellular receptor 1 (Cavia porcellus)", "pKi": 7.42}

a: OC[C@H]1CN(Cc2ccccc2)CCCN1Cc1ccccc1
b: COC(CN1CCCN(Cc2ccccc2)[C@@H](CO)C1)OC
**Query** Which value of pKi is greater, the one for a or the one for b ? Provide the label of your selected option as the answer.
**Result** a
(a: 8.13, b: 6.49)
